Hi there, I'd appreciate the recorded relevant activity (%) for every entry that follows.
Target: acid-urease obtained by culturing Lactobacillus fermentum TK 1214 (Limosilactobacillus fermentum, UniProt P26929)
Sequence (P26929 whole entry): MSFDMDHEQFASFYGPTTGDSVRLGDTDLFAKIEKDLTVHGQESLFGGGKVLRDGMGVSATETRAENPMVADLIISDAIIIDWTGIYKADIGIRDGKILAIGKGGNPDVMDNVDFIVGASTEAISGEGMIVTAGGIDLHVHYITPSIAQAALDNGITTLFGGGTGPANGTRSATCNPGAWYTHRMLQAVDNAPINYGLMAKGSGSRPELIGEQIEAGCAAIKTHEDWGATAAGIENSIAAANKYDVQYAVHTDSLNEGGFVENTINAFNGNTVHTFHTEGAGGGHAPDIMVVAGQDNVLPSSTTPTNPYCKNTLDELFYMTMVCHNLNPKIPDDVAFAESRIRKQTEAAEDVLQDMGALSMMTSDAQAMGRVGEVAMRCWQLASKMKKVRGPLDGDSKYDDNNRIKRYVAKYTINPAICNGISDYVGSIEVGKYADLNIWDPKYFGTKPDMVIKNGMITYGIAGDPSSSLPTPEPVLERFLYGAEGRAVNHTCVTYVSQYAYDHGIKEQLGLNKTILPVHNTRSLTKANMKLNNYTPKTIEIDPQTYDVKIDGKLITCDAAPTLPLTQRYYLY
Sequence (P26930 whole entry partner): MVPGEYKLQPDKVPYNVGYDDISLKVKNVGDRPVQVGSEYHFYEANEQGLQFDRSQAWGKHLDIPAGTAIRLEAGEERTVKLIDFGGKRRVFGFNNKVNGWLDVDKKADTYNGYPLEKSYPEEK
Sequence (P26931 whole entry partner): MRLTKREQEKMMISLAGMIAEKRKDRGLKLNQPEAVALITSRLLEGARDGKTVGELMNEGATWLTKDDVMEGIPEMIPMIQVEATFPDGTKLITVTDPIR
Experiment: Substrate specificity of acid urease (colorimetric assay of ammonia formed)
Format: biochemical
Conditions: substance used as substrate of acid urease
Write down the numeric answer in % and omit the unit.

input: Give its relevant activity (%) value. Item: NC(=O)NO [Hydroxyurea]
output: 0

input: Give its relevant activity (%) value. Item: NC(N)=S [Thiourea]
output: 0

input: Give its relevant activity (%) value. Item: O=C(NO)c1ccccc1 [Benzohydroxamic acid]
output: 0
